B1: NCF4 (parent)
chain: FGPDSKSSALACTLPTLPAKVYVG

- Variants of: B1
- assay notes: protein stability index of a GFP-peptide fusion (GPS, HEK-293T) (PSI 1-6); higher = more stable;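 further: lentivirally expressed fusions sorted by FACS into six bins by GFP to DsRed ratio, PSI derived from sequencing read proportions per bin multiplied by bin number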
- measurement context: c terminus: a fixed tail appended
Would you please tag the item True when its protein stability index is 2 or above, and False when it is below?

Kindly determine if protein stability index recorded for A19G is above or exactly 2.
True

API: above_or_equal(metric=protein stability index, cutoff=2) for item A19E
True

Check the entry P15G : does protein stability index equal or exceed 2?
False

Test whether the variant L17I records protein stability index of 2 or higher.
False

Assess whether reported protein stability index for F1P sits at 2 or higher.
True

Dear colleague, could you confirm whether G24E has protein stability index at or above 2?
True

Hello, I need to know if K20H has measured protein stability index not below 2. Thanks!
True

Does F1T have a reported protein stability index of at least 2?
True

Determine whether measured protein stability index meets or exceeds 2 for V21P
True

Is protein stability index for S8R at or above 2?
True

Does the variant C12I have recorded protein stability index that is 2 or more?
True

Decide: protein stability index of C12E >= 2?
True

Check this variant for protein stability index at or above 2: G2N
False

Hello, I need to know if S7R has measured protein stability index not below 2. Thanks!
True

Is protein stability index at least 2? Consider T13H
False

Quick check, protein stability index >= 2? C12N
True

For this variant, is measured protein stability index 2 or higher? G24D
True

Could you verify whether the entry P15E shows protein stability index of no less than 2?
True

Could you please find out whether P18S has protein stability index that meets 2 or exceeds it?
False

Evaluate P3V : protein stability index at minimum 2?
False

hey, is protein stability index for this one >= 2? P3F
False
